Values were extracted from patent US20260008852A1.

Let's look at some binders and their measured MFI @ 10 ug/ml.
SUBJECT_OF_TEST: T1, B7-H3 on B7-H3-expressing CHO cells (Genescript) (UniProt Q5ZPR3 29-534, limits assumed)
T1 construct: whole, on cells; also called CHO-K1/B7-H3; MFI B7-H3
T1 sequence (looked up): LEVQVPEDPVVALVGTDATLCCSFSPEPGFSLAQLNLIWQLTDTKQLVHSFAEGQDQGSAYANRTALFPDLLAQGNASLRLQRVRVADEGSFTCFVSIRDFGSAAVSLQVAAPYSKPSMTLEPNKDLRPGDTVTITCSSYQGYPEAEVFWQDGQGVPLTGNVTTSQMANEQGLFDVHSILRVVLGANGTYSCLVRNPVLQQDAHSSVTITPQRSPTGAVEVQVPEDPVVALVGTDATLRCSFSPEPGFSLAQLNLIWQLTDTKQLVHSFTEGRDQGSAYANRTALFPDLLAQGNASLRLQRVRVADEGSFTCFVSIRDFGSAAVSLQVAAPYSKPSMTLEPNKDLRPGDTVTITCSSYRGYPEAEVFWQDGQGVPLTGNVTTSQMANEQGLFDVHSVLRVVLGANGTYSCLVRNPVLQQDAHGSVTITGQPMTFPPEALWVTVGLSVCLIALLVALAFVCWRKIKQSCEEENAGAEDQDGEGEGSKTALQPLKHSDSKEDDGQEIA
ASSAY_PROCEDURE: flow cytometry, B7-H3-expressing CHO cells, 10 ug/ml
Procedure: Binding of anti-B7-H3 antibodies to cell lines was assessed by flow cytometry. Briefly, approximately 1.5 e5 B7-H3-expressing CHO cells (Genescript) or parent CHO cells (ATCC) were resuspended in FACS buffer (PBS/1% BSA/0.01% NaN3) containing 10 μg/ml of anti-B7-H3 antibodies and incubated for 60 min on ice. […] Cells were then washed twice, resuspended in FACS buffer, and read on an Attune Flow Cytometer (Life Technologies). Data are expressed as Mean Fluorescent Intensities (MFI).
# unit: MFI | format: bare number

{"BINDER": "40511p1.1.G1 (scFv, V domains shown, Tested as scFv-Fc (Expi293 supernatant)) VH: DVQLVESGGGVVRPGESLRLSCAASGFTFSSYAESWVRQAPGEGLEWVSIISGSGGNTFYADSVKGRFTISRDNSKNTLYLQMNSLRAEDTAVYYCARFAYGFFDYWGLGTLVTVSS VL: EIVLTQSPGTLSVSPGEGATLSCRASQTVGSKLAWYQQKPGQPPSLLIYDASTRATGIPDRFSGSGSGTDFTLTISSLQSEDFAVYYCQQYRNWPPLTFGGGTKVEIK", "UNIT_SPEC": "MFI", "TEST_RESULT": 74500}

-- ask Returns the measured MFI @ 10 ug/ml for the input binder. Input: 40579p1.C2 (scFv, V domains shown, Tested as scFv-Fc (Expi293 supernatant)) VH: EVQLLESGGDLVQPGGSLRLSCAASGFNFSSYWMSWVRQAPGKGLEWVSGISISYGGNAYYADSVKGRFTVSRDNSKNTLYLQMNSLRAEDTAVYYCGRDRSPYQYRSMDVWGQGTTVTVSS VL: EIVLTQSPATLSVSPGERATFSCRASQTIGNKLAWYQQKPGQAPRLLIFSASTRATDIPDRFSGSGSGTDFTLTISSLQSEDFAVYYCQQYNNWPPLTFGGGTKVEIK
-- reply 75400

-- ask Which value of MFI @ 10 ug/ml has been reported for 40633p1.2.E11 (scFv, V domains shown, Tested as scFv-Fc (Expi293 supernatant)) VH: EVQLLESGGGLVQPGGSLRLSCAASGFSFSNYDMSWVRQAPGKGLEWVAGIRSGSRTYYADSVKGRFTISRDNSKNTLYLQMNSLRAEDTATYYCGRYFNMDVWGQGTTVTVSS VL: QSVLTQPPSASGTPGQRVTISCSGSTFNIGTNLVHWYQQLPGTAPKLLIYLTDRRPPGVPDRFSGSKSGTSASLAISGLQSEDEANYYCATWDDSLNSFLFGGGTKLTVL in the records?
-- reply 81300
